Reference source for all entries: patent US8772480B2

Tested on: phosphorylation of Akt at Serine 473 in U87 MG cells
Experiment: cells
Conditions: Homo sapiens, U-87 MG, 2 h, read-out: U87Cell IC50, pAkt (Ser 473), U87 MG cells, two hours with compound
pIC50: −log10 of the molar value.
I would appreciate it if you labelled entries 1 when pIC50 is 7 or higher, otherwise 0.

| compound | assayed system | label |
| --- | --- | --- |
| COc1ncc(Nc2ncc([C@@H](C)N3CCN(S(C)(=O)=O)CC3)cc2-c2nc(C)nc3[nH]cnc23)cc1F | phosphorylation of Akt at Serine 473 in U87 MG cells | 1 |
| COc1ccc(Nc2ncc(CN3CCN(S(C)(=O)=O)C[C@H]3C)cc2-c2nc(C)nc(N)n2)cn1 | phosphorylation of Akt at Serine 473 in U87 MG cells | 1 |
| COc1ccc(Nc2ncc(C(N)c3ccc(S(=O)(=O)N(C)C)cc3)cc2-c2nc(C)nc(N)n2)cn1 (centres unmarked) | phosphorylation of Akt at Serine 473 in U87 MG cells | 1 |
| COc1cc(Nc2ncccc2-c2nc(C)nc(N)n2)ccc1F | phosphorylation of Akt at Serine 473 in U87 MG cells | 0 |
| COc1ncc(Nc2ncc(C(N3CCN(S(C)(=O)=O)CC3)C(F)(F)F)cc2-c2nc(C)nc(N)n2)cc1F (centres unmarked) | phosphorylation of Akt at Serine 473 in U87 MG cells | 1 |
| COc1ccc(Nc2ncc(N3CC[C@H](CO)C3)cc2-c2nc(C)nc3[nH]cnc23)cn1 | phosphorylation of Akt at Serine 473 in U87 MG cells | 0 |
| COc1ncc(Nc2ncc(C(C)N3CCN(S(C)(=O)=O)CC3)cc2-c2nc(C)nc(N)n2)cc1F (centres unmarked) | phosphorylation of Akt at Serine 473 in U87 MG cells | 1 |
